Listing of entries alongside the reported CellTox Green cytotoxicity fluorescence.
system: Kasumi-1; experiment: CellTox Green cytotoxicity fluorescence relative to DMSO vehicle (fold of vehicle RFU); higher = more cell death (loss of membrane integrity), active = 2 or more; conditions: 1 µM; 24 h
When you answer, write just the number.

{"Compound": "CN1CCN(Cc2ccc(Nc3ncc(Cl)c(Nc4ccccc4S(=O)(=O)N(C)C)n3)cc2)CC1", "CellTox Green cytotoxicity fluorescence": 1.47}
{"Compound": "Nc1nc(F)nc2c1ncn2[C@@H]1O[C@H](CO)[C@@H](O)[C@@H]1O", "CellTox Green cytotoxicity fluorescence": 1.02}
{"Compound": "Nc1cccc2c1CN(C1CCC(=O)NC1=O)C2=O (stereo not given) [Lenalidomide]", "CellTox Green cytotoxicity fluorescence": 0.986}
{"Compound": "Cc1nn(C)c(COc2ccc(N3CCN(S(=O)(=O)N(C)C)CC3)cc2)c1-c1cccc2c(CCCOc3cccc4ccccc34)c(C(=O)O)n(CCN3CCOCC3)c12", "CellTox Green cytotoxicity fluorescence": 0.938}
{"Compound": "O=C1NC(=NCc2cccs2)S/C1=C\\c1ccc2ncccc2c1", "CellTox Green cytotoxicity fluorescence": 1.02}
{"Compound": "C[C@H]1Oc2cc(cnc2N)-c2c(nn(C)c2C#N)CN(C)C(=O)c2ccc(F)cc21", "CellTox Green cytotoxicity fluorescence": 0.922}
{"Compound": "CCS(=O)(=O)N1CCN(c2ccc(Nc3ncc(C(N)=O)c(NC4CC4)n3)cc2)CC1", "CellTox Green cytotoxicity fluorescence": 0.928}
{"Compound": "Cc1c(C(=O)Nc2ccc(Oc3ccnc4[nH]cc(-c5ccccc5)c34)c(F)c2)c(=O)n(-c2ccc(F)cc2)n1C", "CellTox Green cytotoxicity fluorescence": 0.84}
{"Compound": "CC[C@@]1(O)C(=O)OCc2c1cc1n(c2=O)Cc2cc3cc(O)ccc3nc2-1 [(S)-10-Hydroxycamptothecin]", "CellTox Green cytotoxicity fluorescence": 0.98}

Now consider a different compound.
// returns reported CellTox Green cytotoxicity fluorescence for input C=CC(=O)N1CC(=Cc2ccc([N+](=O)[O-])cc2)C(=O)C(=Cc2ccc([N+](=O)[O-])cc2)C1
1.25

====

test system: Kasumi-1; assay: CellTox Green cytotoxicity fluorescence relative to DMSO vehicle (fold of vehicle RFU); higher = more cell death (loss of membrane integrity), active = 2 or more; settings: 0.01 µM; 24 h
Readout Name: CellTox Green cytotoxicity fluorescence
When you answer, write just the number.

Previously resolved entries follow.
{"Compound": "Nc1ccccc1NC(=O)c1cnccn1", "CellTox Green cytotoxicity fluorescence": 0.967}
{"Compound": "CC[C@@]1(O)C(=O)OCc2c1cc1n(c2=O)Cc2cc3cc(O)ccc3nc2-1 [(S)-10-Hydroxycamptothecin]", "CellTox Green cytotoxicity fluorescence": 0.962}
{"Compound": "Cc1nc(Nc2ncc(C(=O)Nc3c(C)cccc3Cl)s2)cc(N2CCN(CCO)CC2)n1 [Dasatinib Monohydrate]", "CellTox Green cytotoxicity fluorescence": 1.03}

// returns reported CellTox Green cytotoxicity fluorescence for input CC(C)(C)C[C@@H]1N[C@@H](C(=O)N[C@H]2CC[C@H](O)CC2)[C@H](c2cccc(Cl)c2F)[C@]12C(=O)Nc1cc(Cl)ccc12
1

====

tested on: Kasumi-1; test: CellTox Green cytotoxicity fluorescence relative to DMSO vehicle (fold of vehicle RFU); higher = more cell death (loss of membrane integrity), active = 2 or more; conditions: 0.01 µM; 24 h
Please enter Criterion met where CellTox Green cytotoxicity fluorescence is greater than or equal to 1, and Criterion not met where it is lower.

{"Compound": "C[C@H]1Oc2cc(cnc2N)-c2c(nn(C)c2C#N)CN(C)C(=O)c2ccc(F)cc21", "Label Value": "Criterion met"}

hey, is CellTox Green cytotoxicity fluorescence for this one >= 1? CCOC(=O)C1=C(N)Oc2ccc(Br)cc2C1C(C#N)C(=O)OCC (configuration not stated)
Criterion not met

Please give the result for CCCCNc1ncc2c(-c3ccc(CN4CCN(C)CC4)cc3)cn([C@H]3CC[C@H](O)CC3)c2n1 too.
Criterion met

Please give the result for CC(=O)N1c2ccc(-c3ccc(C(=O)O)cc3)cc2[C@H](Nc2ccc(Cl)cc2)C[C@@H]1C too.
Criterion not met
